Exercise: for every item that follows, state its recorded X = 350.
Target: T1, human Dectin-1 (biosensor tests of Tables 3, 4A and 9; construct not stated) (human, UniProt Q9BXN2 66-247, limits assumed)
T1 construct: also called hDectin-1
T1 sequence (looked up): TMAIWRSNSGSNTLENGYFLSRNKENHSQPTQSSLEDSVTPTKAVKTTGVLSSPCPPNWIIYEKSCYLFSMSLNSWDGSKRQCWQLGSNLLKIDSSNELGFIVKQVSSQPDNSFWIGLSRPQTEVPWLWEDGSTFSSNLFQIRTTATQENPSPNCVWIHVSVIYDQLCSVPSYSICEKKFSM
Experiment: Octet response
Answers are plain numbers.

BINDER	ENDPOINT_VALUE
2M24A.1.21 (Fab, V domains shown, Fab; also called 2M24.1.21) VH: QVQLVQSGAEVKKPGASVKVSCKSSGYTFTDYYIHWVRQAPGQGLEWMGWINPNSGDTNYAQKFQGRITMTRDTSISTAYLELSRLRSDDTAVFYCARNSGSYSFAYWGQGTLVTVSS VL: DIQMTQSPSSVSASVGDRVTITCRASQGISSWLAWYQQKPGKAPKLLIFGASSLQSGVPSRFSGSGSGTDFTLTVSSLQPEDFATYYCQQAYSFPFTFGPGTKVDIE	0.114
2M24A.1.15 (Fab, V domains shown, Fab; also called 2M24.1.15) VH: QVQLVQSGAEVKKPGASVKVSCKSSGYTFTDYYIHWVRQAPGQGLEWMGWINPNSGDTNYAQKFQGRITMTRDTSISTAYLELSRLRSDDTAVFYCAANSGSYSFGYWGQGTLVTVSS VL: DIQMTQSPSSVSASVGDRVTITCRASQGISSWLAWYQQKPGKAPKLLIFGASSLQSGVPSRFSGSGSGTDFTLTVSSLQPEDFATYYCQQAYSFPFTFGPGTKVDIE	0.0314

Proceed to the following item.
Give the measured X = 350 of 2M24A.1.17 (Fab, V domains shown, Fab; also called 2M24.1.17) VH: QVQLVQSGAEVKKPGASVKVSCKSSGYTFTDYYIHWVRQAPGQGLEWMGWINPNSGDTNYAQKFQGRITMTRDTSISTAYLELSRLRSDDTAVFYCARNSASYSFGYWGQGTLVTVSS VL: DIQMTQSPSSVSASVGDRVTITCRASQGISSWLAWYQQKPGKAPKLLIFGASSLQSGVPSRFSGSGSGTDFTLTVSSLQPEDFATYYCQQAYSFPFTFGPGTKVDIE .
0.129
